# System: DLD-1 BRCA2(−/−) cells
# assayExplanation: Cell growth inhibition assay (CellTiter-Glo), DLD-1 BRCA2(−/−)
# Assay type: cell-based
# appliedConditions: Homo sapiens, DLD-1, 168 h; cell viability, CellTiter Glo 2.0, 7 days
pEC50: −log10 of the molar value.
assayEndpoint: pEC50

Here is how some compounds turned out for pEC50.
- compound: "CNC(=O)c1ccc(N2CCN(Cc3ccc4c5c(c(=O)[nH]c4c3)CCO5)CC2)c(C)n1 [Comp. Ex. 1, reference compound]"
  pEC50: 8.70
- compound: "CNC(=O)c1ccc(N2CCN(Cc3cc(F)c4c5c(c(=O)[nH]c4c3)COC5)CC2)c(F)n1 [Comp. Ex. 3, reference compound]"
  pEC50: 8.80
- compound: "CNC(=O)c1ccc(N2CCN(Cc3ccc4c5c(c(=O)[nH]c4c3F)CCO5)CC2)c(F)n1"
  pEC50: 8.49
- compound: "[2H]C([2H])([2H])NC(=O)c1ccc(N2CCN(Cc3ccc4c([nH]c(=O)c5ccoc54)c3F)CC2)c(F)n1"
  pEC50: 8.19
- compound: "CNC(=O)c1ccc(N2CCN(Cc3ccc4c([nH]c(=O)c5ccoc54)c3F)CC2)c(F)n1"
  pEC50: 8.42

1 = CNC(=O)c1ccc(N2CCN(Cc3ccc4c5c(c(=O)[nH]c4c3F)CCO5)CC2)c(C)n1
2 = CNC(=O)c1ccc(N2CCN(Cc3ccc4c5c(c(=O)[nH]c4c3)CCO5)CC2)c(Cl)n1 [Comp. Ex. 2, reference compound]
Pick the one with the larger pEC50: 1 vs 2 Answer by quoting the chosen item's label.
2
